Hey, just so you know, these numbers are from ChEMBL document CHEMBL5728586.

# STUDY TARGET: Mitogen-activated protein kinase kinase kinase kinase 1 (Homo sapiens)
# Sequence (Q92918 whole entry, the tested form may be a part): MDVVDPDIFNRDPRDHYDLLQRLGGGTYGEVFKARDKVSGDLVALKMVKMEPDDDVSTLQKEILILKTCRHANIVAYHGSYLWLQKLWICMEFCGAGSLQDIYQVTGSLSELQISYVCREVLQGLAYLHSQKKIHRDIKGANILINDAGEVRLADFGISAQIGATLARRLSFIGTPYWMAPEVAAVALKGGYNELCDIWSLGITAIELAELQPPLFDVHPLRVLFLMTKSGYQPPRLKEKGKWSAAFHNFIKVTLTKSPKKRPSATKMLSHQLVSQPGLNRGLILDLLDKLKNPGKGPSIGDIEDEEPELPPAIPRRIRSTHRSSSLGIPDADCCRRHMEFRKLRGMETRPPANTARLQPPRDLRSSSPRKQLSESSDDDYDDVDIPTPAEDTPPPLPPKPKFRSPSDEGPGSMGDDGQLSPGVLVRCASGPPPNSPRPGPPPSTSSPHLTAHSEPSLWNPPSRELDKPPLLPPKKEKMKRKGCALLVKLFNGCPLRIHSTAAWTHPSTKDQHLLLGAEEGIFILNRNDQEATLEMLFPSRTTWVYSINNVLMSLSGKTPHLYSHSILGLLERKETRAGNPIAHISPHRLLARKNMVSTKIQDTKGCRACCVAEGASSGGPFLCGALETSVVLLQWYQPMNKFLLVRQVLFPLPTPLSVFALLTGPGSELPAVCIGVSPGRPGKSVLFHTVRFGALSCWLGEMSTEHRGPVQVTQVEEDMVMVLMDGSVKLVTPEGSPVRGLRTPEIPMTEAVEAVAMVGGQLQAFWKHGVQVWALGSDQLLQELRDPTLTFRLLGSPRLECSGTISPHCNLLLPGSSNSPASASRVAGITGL
# ASSAY: Enzymatic Activity Assay: Recombinant HPK1 kinase domain produced via baculovirus infection of insect cells was obtained from Proteros (Proteros Biostructures #PR-0322) and was pre-activated in the presence of 2 mM ATP (Sigma-Aldrich, cat #GE27-2056-01) and 2 mM magnesium chloride for 16 hours at 4° C. The protein reaction mixture was then loaded to a desalting column (Thermo Fisher Scientific, Cat #89889) to remove excess ATP. HPK1 was eluted with buffer containing 20 mM Tris (2-Amino-2-(hydroxymethyl)propane-1,3-diol) pH 8.0, 150 mM NaCl, 2 mM dithiothreitol and 5% glycerol, and was frozen at −80° C. for later use. HPK1 dual phosphorylation was confirmed by mass spectrometry.Ten nanoliters of test compounds dissolved in DMSO at various concentrations were dispensed into a 384-well ProxiPlate (PerkinElmer #6008289). Five microliters of a solution of recombinant HPK1 diluted in HPK1 kinase assay buffer (50 mM BES [N,N-Bis(2-hydroxyethyl)-2-aminoethanesulfonic acid], pH 7.0; 10 mM magnesium chloride; 0.01% Triton X-100; 1 mM dithiothreitol; 0.01% bovine serum albumin; 0.1 mM sodium orthovanadate) was added to the compound-containing plate and was incubated for 15 minutes at 25° C. Five microliters of a mixture of ATP (Sigma-Aldrich #A6559) and peptide substrate STK S1 (Cisbio #61ST1BLC) diluted in HPK1 kinase assay buffer was then added to start the reaction. Final concentrations were 0.15 nM for HPK1, 10 μM for ATP, and 1 μM for the STK S1 peptide substrate. The reaction mixture was incubated at 25° C. for 3 hours and was stopped with the addition of 10 μl of an EDTA (Ethylenediaminetetraacetic acid)-containing detection buffer (Cisbio #62SDBRDF) supplemented with Europium cryptate-labeled anti-phospho-serine/threonine antibodies (Cisbio #62ST1PEJ) and XL665-labeled streptavidin (Cisbio #610SAXLG). The mixture was incubated for 16 hours at room temperature and peptide phosphorylation was measured by time-resolved fluorescence energy transfer (665 nm/620 nm) on an Envision plate reader (PerkinElmer).
TEST READOUT: pIC50
Worth noting: pIC50 values are minus log10 of concentrations stated in mol/L.

CC(C)n1cnc2cc(-c3ccc4c(c3)N([C@H]3C[C@@H](N5CCC(C)(C)C5)C3)C(=O)C43CCN(C(=O)[C@H]4CC[C@@H](C)O4)CC3)nc(Nc3ccncc3F)c21 :: 9.70

Could you now look at the following molecule, please?
In plain terms, CC(C)n1cnc2cc(-c3ccc4c(c3)N([C@H]3C[C@@H](N5CCC(C)(C)C5)C3)C(=O)C43CCN(C(=O)[C@@H]4OCC[C@@H]4C)CC3)nc(Nc3ccncc3F)c21 has a documented pIC50 of 9.52
